Let's look at some compounds and their measured Ratio IC50.
- Organism: Homo sapiens
- Assay Summary: Selectivity ratio of IC50 for inhibition of PI3Kalpha (unknown origin) to IC50 for inhibition of PI3Kgamma (unknown origin)
Give the value as a plain number.

- Molecule: "C[C@@H](C1CC1)N1Cc2cc(-c3ccn4nc(N)c(C(=O)NC5CC5)c4n3)cc(OC(F)(F)F)c2C1=O"
  Readout Number: 411

Q) Name the recorded Ratio IC50 of the item C[C@H](N1Cc2cc(-c3ccn4nc(N)c(C(=O)N[C@@H](CO)C5CC5)c4n3)cc(OC(F)F)c2C1=O)C(F)(F)F in your answer.
A) 385

Q) Supply recorded Ratio IC50 for C[C@H](N1Cc2cc(-c3ccn4nc(N)c(C(=O)N[C@H]5CC[C@@](C)(O)CC5)c4n3)cc(NS(C)(=O)=O)c2C1=O)C(F)(F)F here.
A) 61

###

- Study System: Cytochrome P450 3A4 (Homo sapiens)
- Assay Summary: Time dependent inhibition of CYP3A4 in human liver microsomes at 40 uM using midazolam as substrate measured after 5 to 20 mins in presence of NADPH by LC/MS/MS analysis
Measured Parameter: IC50

Q) Find the measured IC50 of C[C@@H](C1CC1)N1Cc2cc(-c3ccn4nc(N)c(C(=O)N[C@H]5CC[C@@](C)(O)CC5)c4n3)cc(OC(F)F)c2C1=O and report it.
A) > 20 µM

###

- Study System: Cytochrome P450 2B6 (Homo sapiens, UniProt P20813)
- Sequence (P20813 whole entry): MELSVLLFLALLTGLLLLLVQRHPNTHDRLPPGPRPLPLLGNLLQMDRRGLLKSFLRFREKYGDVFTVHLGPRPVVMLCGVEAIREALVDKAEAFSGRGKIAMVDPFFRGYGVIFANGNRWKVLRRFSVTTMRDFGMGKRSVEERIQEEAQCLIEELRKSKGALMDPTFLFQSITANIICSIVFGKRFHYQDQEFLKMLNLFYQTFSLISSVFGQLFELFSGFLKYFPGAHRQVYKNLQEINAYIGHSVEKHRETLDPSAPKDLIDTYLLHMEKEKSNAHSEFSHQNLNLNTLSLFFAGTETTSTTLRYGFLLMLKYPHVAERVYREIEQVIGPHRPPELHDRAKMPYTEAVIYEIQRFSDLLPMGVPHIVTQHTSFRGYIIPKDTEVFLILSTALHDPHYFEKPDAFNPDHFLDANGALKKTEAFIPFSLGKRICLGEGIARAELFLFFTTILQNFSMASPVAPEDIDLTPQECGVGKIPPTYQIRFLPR
- Assay Summary: Time dependent inhibition of CYP2B6 in human liver microsomes at 40 uM measured after 5 to 20 mins in presence of NADPH by LC/MS/MS analysis
pIC50: −log10 of the molar value.
Measured Parameter: pIC50

Q) Supply pIC50 value. Item: C[C@@H](C1CC1)N1Cc2cc(-c3ccn4nc(N)c(C(=O)N[C@H]5CC[C@@](C)(O)CC5)c4n3)cc(OC(F)F)c2C1=O
A) < 4.70

###

- Assay Summary: Metabolic stability in human hepatocytes assessed as intrinsic clearance per 10^6 cells at 0.5 uM by LC-MS/MS analysis
- Assay type: ADME, cell-based, Hepatocyte
- Protocol Conditions: read-out: CLH
Measured Parameter: hepatocyte CLint at 0.5 µM (µL/min/1e6 cells)
Express it in µL/min/1e6 cells; write the number only.

# annotated cases, reported hepatocyte CLint at 0.5 µM shown
- Molecule: "C[C@H](N1Cc2cc(-c3ccn4nc(N)c(C(=O)N[C@H]5CC[C@@](C)(O)CC5)c4n3)cc(NS(C)(=O)=O)c2C1=O)C(F)(F)F"
  Readout Number: 2.44
- Molecule: "C[C@H](N1Cc2cc(-c3ccn4nc(N)c(C(=O)N[C@@H](CO)C5CC5)c4n3)cc(NS(C)(=O)=O)c2C1=O)C(F)(F)F"
  Readout Number: 6.31
- Molecule: "Cc1cc(-c2ccn3nc(N)c(C(=O)N[C@H]4CC[C@H](O)CC4)c3n2)cc2c1C(=O)N([C@@H](C)C1CC1)C2"
  Readout Number: 4.76
- Molecule: "CC(C)S(=O)(=O)c1cc(-c2ccn3nc(N)c(C(=O)NC4CC4)c3n2)cc2c1C(=O)N([C@@H](C)C1CC1)C2"
  Readout Number: 2.43
- Molecule: "CC(C)[C@H](N1Cc2cc(-c3ccn4nc(N)c(C(=O)NC5CC5)c4n3)cc(NS(C)(=O)=O)c2C1=O)C(F)(F)F"
  Readout Number: 6.52
- Molecule: "Cc1cc(-c2ccn3nc(N)c(C(=O)N[C@H]4CC[C@](C)(O)CC4)c3n2)cc2c1C(=O)N([C@@H](C)C1CC1)C2"
  Readout Number: 8.7

Then there is this compound:
Q) Output hepatocyte CLint at 0.5 µM of C[C@H](N1Cc2cc(-c3ccn4nc(N)c(C(=O)N[C@@H](CO)C5CC5)c4n3)cc(OC(F)F)c2C1=O)C(F)(F)F
A) 7.17

###

- Study System: CYP3A4 (Homo sapiens, UniProt P08684)
- Sequence (P08684 whole entry): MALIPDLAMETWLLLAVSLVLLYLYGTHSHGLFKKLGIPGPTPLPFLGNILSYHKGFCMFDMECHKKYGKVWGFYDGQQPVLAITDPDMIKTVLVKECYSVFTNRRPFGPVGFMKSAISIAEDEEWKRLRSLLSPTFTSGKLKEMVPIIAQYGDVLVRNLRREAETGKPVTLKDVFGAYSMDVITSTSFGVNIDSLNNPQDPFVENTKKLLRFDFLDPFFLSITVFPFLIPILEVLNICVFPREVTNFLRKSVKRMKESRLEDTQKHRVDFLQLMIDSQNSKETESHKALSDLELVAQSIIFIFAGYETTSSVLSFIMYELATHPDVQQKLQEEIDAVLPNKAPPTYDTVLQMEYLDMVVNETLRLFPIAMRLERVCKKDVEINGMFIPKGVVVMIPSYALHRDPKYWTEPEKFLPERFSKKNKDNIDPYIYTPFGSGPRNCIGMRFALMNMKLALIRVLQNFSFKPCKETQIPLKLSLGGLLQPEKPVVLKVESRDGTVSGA
- Assay Summary: in vitro
- Protocol Conditions: human liver microsomes, probe midazolam
- Description: Time dependent inhibition of CYP3A4 in human liver microsomes at 10 uM using midazolam as substrate preincubated for 30 mins in presence of NADPH by LC/MS/MS analysis relative to control
Category | rule: reported inhibition at 30 min, 10 µM within range, see low (below 10%), middle (10% to below 40%), high (40% or more)

Q) Which inhibition at 30 min, 10 µM band matches CC(C)c1cc(-c2ccn3nc(N)c(C(=O)NC4CC4)c3n2)cc2c1C(=O)N([C@@H](C)C1CC1)C2 ?
A) middle

Q) Which category fits this record: CC[C@H](N1Cc2cc(-c3ccn4nc(N)c(C(=O)NC5CC5)c4n3)cc(NS(C)(=O)=O)c2C1=O)C(F)(F)F
A) high

Q) Categorize the following entry: C[C@H](N1Cc2cc(-c3ccn4nc(N)c(C(=O)NC5CC5)c4n3)cc(NS(C)(=O)=O)c2C1=O)C(F)(F)F
A) middle

Q) Kindly identify the class of C[C@@H](C1CC1)N1Cc2cc(-c3ccn4nc(N)c(C(=O)N[C@@H](CO)C5CC5)c4n3)cc(OC(F)F)c2C1=O .
A) middle

Q) Kindly state the category for this molecule: Cc1cc(-c2ccn3nc(N)c(C(=O)Nc4cnn(C)c4)c3n2)cc2c1C(=O)N([C@@H](C)C1CC1)C2
A) high

Q) Record C[C@@H](C1CC1)N1Cc2cc(-c3ccn4nc(N)c(C(=O)NC5CC5)c4n3)cc(S(C)(=O)=O)c2C1=O — which class?
A) low

Q) Which bin, given its inhibition at 30 min, 10 µM, does C[C@@H](C1CC1)N1Cc2cc(-c3ccn4nc(N)c(C(=O)NC5CC5)c4n3)cc(C3CC3)c2C1=O occupy?
A) middle

Q) Assign a bin to CS(=O)(=O)Nc1cc(-c2ccn3nc(N)c(C(=O)NC4CC4)c3n2)cc2c1C(=O)N([C@@H](C1CC1)C(F)(F)F)C2
A) middle

Q) Into which bin does this molecule go? Cc1cc(-c2ccn3nc(N)c(C(=O)N[C@@H](CO)C4CC4)c3n2)cc2c1C(=O)N([C@@H](C)C1CC1)C2
A) low

Q) # bin lookup: classify Cc1cc(-c2ccn3nc(N)c(C(=O)N[C@H]4CNC(=O)C4)c3n2)cc2c1C(=O)N([C@@H](C)C1CC1)C2 by its inhibition at 30 min, 10 µM
A) low

Q) Could you tell me which band C[C@@H](C1CC1)N1Cc2cc(-c3ccn4nc(N)c(C(=O)NC5CC5)c4n3)cc(Cl)c2C1=O belongs to?
A) middle

Q) Band assignment needed for C[C@@H](C1CC1)N1Cc2cc(-c3ccn4nc(N)c(C(=O)NC5CC5)c4n3)cc(C(F)(F)F)c2C1=O please.
A) low

Q) Hi there! Could you help me figure out the category for C[C@@H](C1CC1)N1Cc2cc(-c3ccn4nc(N)c(C(=O)NC5CC5)c4n3)cc(NS(C)(=O)=O)c2C1=O please?
A) middle

Q) Which inhibition at 30 min, 10 µM band matches CC(C)[C@H](N1Cc2cc(-c3ccn4nc(N)c(C(=O)NC5CC5)c4n3)cc(NS(C)(=O)=O)c2C1=O)C(F)(F)F ?
A) high

###

- Assay Summary: Metabolic stability in human hepatocytes assessed as intrinsic clearance per 10^6 cells at 0.5 uM by LC-MS/MS analysis
- Type: ADME, cell-based, Hepatocyte
- Protocol Conditions: read-out: CLH
Measured Parameter: hepatocyte CLint at 0.5 µM (µL/min/1e6 cells)
Numeric only. Scale: µL/min/1e6 cells

- Molecule: "C[C@@H](C1CC1)N1Cc2cc(-c3ccn4nc(N)c(C(=O)N[C@@H](CO)C5CC5)c4n3)cc(OC(F)F)c2C1=O"
  Units Label: "µL/min/1e6 cells"
  hepatocyte CLint at 0.5 µM: 4.35
- Molecule: "CNS(=O)(=O)c1cc(-c2ccn3nc(N)c(C(=O)NC4CC4)c3n2)cc2c1C(=O)N([C@@H](C)C1CC1)C2"
  Units Label: "µL/min/1e6 cells"
  hepatocyte CLint at 0.5 µM: 4.46
- Molecule: "C[C@@H](C1CC1)N1Cc2cc(-c3ccn4nc(N)c(C(=O)N[C@H]5CC[C@](C)(O)CC5)c4n3)cc(NS(C)(=O)=O)c2C1=O"
  Units Label: "µL/min/1e6 cells"
  hepatocyte CLint at 0.5 µM: 3.39
- Molecule: "Cc1cc(-c2ccn3nc(N)c(C(=O)N[C@H]4C[C@H](O)C4)c3n2)cc2c1C(=O)N([C@@H](C)C1CC1)C2"
  Units Label: "µL/min/1e6 cells"
  hepatocyte CLint at 0.5 µM: 11.3
- Molecule: "CCS(=O)(=O)c1cc(-c2ccn3nc(N)c(C(=O)NC4CC4)c3n2)cc2c1C(=O)N([C@@H](C)C1CC1)C2"
  Units Label: "µL/min/1e6 cells"
  hepatocyte CLint at 0.5 µM: 2.03
- Molecule: "C[C@@H](C1CC1)N1Cc2cc(-c3ccn4nc(N)c(C(=O)N[C@H]5CC[C@](O)(C(F)(F)F)CC5)c4n3)cc(NS(C)(=O)=O)c2C1=O"
  Units Label: "µL/min/1e6 cells"
  hepatocyte CLint at 0.5 µM: 1.9

Q) Write down hepatocyte CLint at 0.5 µM measured for item Cc1cc(-c2ccn3nc(N)c(C(=O)NC4CCC4)c3n2)cc2c1C(=O)N([C@@H](C)C1CC1)C2
A) 29.3

Q) Give me measured hepatocyte CLint at 0.5 µM, please, for this compound: Cc1cc(-c2ccn3nc(N)c(C(=O)NC4COC4)c3n2)cc2c1C(=O)N([C@@H](C)C1CC1)C2
A) 6.21
